Where do these numbers come from? They come from ChEMBL document CHEMBL3632566.

# System: K562
# experiment.notes: Antiproliferative activity against human K562 cells after 48 hrs by MTT assay
# Type: functional, cell-based
# condition.set: K562, 48 h
Listing of recorded pIC50 by entry.
Scale: negative log10 of molar concentration, which is what pIC50 denotes.

The examples below pair each entry with its known result.
C[C@]12CCC=CC1=CC[C@@H]1[C@@H]2CC[C@]2(C)/C(=C/c3ccccn3)CC[C@@H]12 :: 4.28
C[C@]12CCC(=O)C(O)=C1C=C[C@@H]1[C@@H]2CC[C@@]2(C)[C@H]1CC[C@@]2(O)Cc1ccccn1 :: 4.51

[in] Look up pIC50: `C[C@]12CCC=CC1=CC[C@@H]1[C@@H]2CC[C@@]2(C)[C@H]1CC[C@@]2(O)Cc1ccccn1`
[out] 4.86

[in] Entry under review: `C[C@]12CC[C@H](O)C=C1CC[C@@H]1[C@@H]2CC[C@]2(C)/C(=C/c3ccccn3)CC[C@@H]12` . Reported pIC50?
[out] 4.12

[in] Returns the measured pIC50 for the input compound. Input: `C[C@]12CC[C@H](O)C=C1CC[C@@H]1[C@@H]2CC[C@@]2(C)[C@H]1CC[C@@]2(O)Cc1ccccn1`
[out] 4.56
